# Test system: wheat
# Experiment Description: Test A pre-/postemergence herbicide test
# Assay type: in vivo, Triticum aestivum
# Condition Summary: Postemergence, 125 g ai/ha; visual rating on 0 to 100 scale (0 no effect, 100 complete control), approx. 10 days
Quantity Name: Plant response rating, Wheat

Some compounds with recorded Plant response rating, Wheat:
- Compound: "O=C1NCC(c2cccc(Br)c2)C1C(=O)Nc1ccccc1F (centres unmarked)"
  Target Entity: "wheat"
  Reported Value: 0
- Compound: "O=C1NCC(c2cc3ccccc3o2)C1C(=O)Nc1cccc(F)c1F (centres unmarked)"
  Target Entity: "wheat"
  Reported Value: 0
- Compound: "O=C1NCC(c2cccc(Br)c2)C1C(=O)Nc1cccc(F)c1F (centres unmarked)"
  Target Entity: "wheat"
  Reported Value: 40

Exercise: What value of Plant response rating, Wheat has been reported for the following compound? O=C1NCC(c2cccc(-n3cccn3)c2)C1C(=O)Nc1cccc(F)c1F (centres unmarked)
Key: 0

Exercise: # get_value(readout='Plant response rating, Wheat', item= CSc1cccc(C2CNC(=O)C2C(=O)Nc2ccc(F)cc2F)c1 (centres unmarked) )
Key: 0

Cited source for all entries: patent US10294202B2
